Examples of compounds with documented Relative Activity* (%) follow.
- System: α-Glucosidase Derived from NBRC4239 Strain
- TEST_SUMMARY: Substrate specificity of the enzyme
- Assay type: biochemical, Aspergillus sojae
- RUN_PARAMETERS: substrate 10mM, 40°C, pH 6.0; relative to decomposition rate of 10 mM maltose
Supply the numeric figure in %, leaving out any unit text.

| COMPOUND | Relative Activity* (%) |
| --- | --- |
| OC[C@H]1O[C@H](OC[C@H]2O[C@H](OC[C@H]3OC(O)[C@H](O)[C@@H](O)[C@@H]3O)[C@H](O)[C@@H](O)[C@@H]2O)[C@H](O)[C@@H](O)[C@@H]1O (some centres unmarked) | 161 |

Next up:
Q: Requested field: Relative Activity* (%). Item: OC[C@H]1O[C@H](O[C@H]2[C@H](O)[C@@H](O)[C@@H](O[C@H]3[C@H](O)[C@@H](O)[C@@H](O[C@H]4[C@H](O)[C@@H](O)[C@@H](O[C@H]5[C@H](O)[C@@H](O)C(O)O[C@@H]5CO)O[C@@H]4CO)O[C@@H]3CO)O[C@@H]2CO)[C@H](O)[C@@H](O)[C@@H]1O (some centres unmarked)
Result: 41

* * *

- System: α-Glucosidase Derived from NBRC4239 Strain
- TEST_SUMMARY: Substrate specificity of the enzyme
- Format: biochemical, Aspergillus sojae
- RUN_PARAMETERS: substrate 10mM, 40°C, pH 6.0; relative to decomposition rate of 10 mM maltose
Everything with Relative Activity* (%) lower than 50% is no (0); everything else, including exactly 50%, is yes (1).

Answered cases to consult:
| MOLECULE | TARGET | LABEL |
| --- | --- | --- |
| OC[C@H]1O[C@H](O[C@H]2[C@H](O)[C@@H](CO)OC(O)[C@@H]2O)[C@H](O)[C@@H](O)[C@@H]1O (some centres unmarked) [nigerose] | α-Glucosidase Derived from NBRC4239 Strain | yes (1) |
| OC[C@H]1O[C@@H]2O[C@H]3[C@H](O)[C@@H](O)[C@@H](O[C@H]4[C@H](O)[C@@H](O)[C@@H](O[C@H]5[C@H](O)[C@@H](O)[C@@H](O[C@H]6[C@H](O)[C@@H](O)[C@@H](O[C@H]7[C@H](O)[C@@H](O)[C@@H](O[C@H]8[C@H](O)[C@@H](O)[C@@H](O[C@H]9[C@H](O)[C@@H](O)[C@@H](O[C@H]1[C@H](O)[C@H]2O)O[C@@H]9CO)O[C@@H]8CO)O[C@@H]7CO)O[C@@H]6CO)O[C@@H]5CO)O[C@@H]4CO)O[C@@H]3CO [γ-cyclodextrine] | α-Glucosidase Derived from NBRC4239 Strain | no (0) |
| OC[C@H]1O[C@@H]2O[C@H]3[C@H](O)[C@@H](O)[C@@H](O[C@H]4[C@H](O)[C@@H](O)[C@@H](O[C@H]5[C@H](O)[C@@H](O)[C@@H](O[C@H]6[C@H](O)[C@@H](O)[C@@H](O[C@H]7[C@H](O)[C@@H](O)[C@@H](O[C@H]8[C@H](O)[C@@H](O)[C@@H](O[C@H]1[C@H](O)[C@H]2O)O[C@@H]8CO)O[C@@H]7CO)O[C@@H]6CO)O[C@@H]5CO)O[C@@H]4CO)O[C@@H]3CO [β-cyclodextrine] | α-Glucosidase Derived from NBRC4239 Strain | no (0) |

Q: Could you verify whether the entry OC[C@H]1O[C@H](OC[C@H]2O[C@H](OC[C@H]3O[C@H](OC[C@H]4OC(O)[C@H](O)[C@@H](O)[C@@H]4O)[C@H](O)[C@@H](O)[C@@H]3O)[C@H](O)[C@@H](O)[C@@H]2O)[C@H](O)[C@@H](O)[C@@H]1O (some centres unmarked) [isomaltotetraose] shows Relative Activity* (%) of no less than 50%?
Result: yes (1)

Q: Could you verify whether the entry OC[C@H]1O[C@H](OC[C@H]2OC(O)[C@H](O)[C@@H](O)[C@@H]2O)[C@H](O)[C@@H](O)[C@@H]1O (some centres unmarked) [isomaltose] shows Relative Activity* (%) of no less than 50%?
Result: yes (1)

Q: Could you verify whether the entry OC[C@H]1O[C@H](OC[C@H]2O[C@H](O[C@H]3[C@H](O)[C@@H](O)C(O)O[C@@H]3CO)[C@H](O)[C@@H](O)[C@@H]2O)[C@H](O)[C@@H](O)[C@@H]1O (some centres unmarked) [panose] shows Relative Activity* (%) of no less than 50%?
Result: yes (1)

Q: Could you verify whether the entry OC[C@H]1O[C@H](O[C@H]2[C@H](O)[C@@H](O)[C@@H](O[C@H]3[C@H](O)[C@@H](O)C(O)O[C@@H]3CO)O[C@@H]2CO)[C@H](O)[C@@H](O)[C@@H]1O (some centres unmarked) [maltotriose] shows Relative Activity* (%) of no less than 50%?
Result: no (0)

* * *

- Test system: α-Glucosidase Derived from NBRC4239 Strain
- TEST_SUMMARY: Substrate specificity of the enzyme
- Type: biochemical, Aspergillus sojae
- RUN_PARAMETERS: substrate 10mM, 40°C, pH 6.0; relative to decomposition rate of 10 mM maltose
PARAMETER: Relative Activity* (%)
Supply the numeric figure in %, leaving out any unit text.

Example compounds with recorded Relative Activity* (%):
| COMPOUND | Relative Activity* (%) |
| --- | --- |
| OC[C@H]1O[C@H](O[C@H]2O[C@H](CO)[C@@H](O)[C@H](O)[C@H]2O)[C@H](O)[C@@H](O)[C@@H]1O [trehalose] | 1 |
| OC[C@H]1O[C@H](O[C@H]2[C@H](O)[C@@H](O)[C@@H](O[C@H]3[C@H](O)[C@@H](O)[C@@H](O[C@H]4[C@H](O)[C@@H](O)C(O)O[C@@H]4CO)O[C@@H]3CO)O[C@@H]2CO)[C@H](O)[C@@H](O)[C@@H]1O (some centres unmarked) [maltotetraose] | 16 |
| OC[C@H]1O[C@H](O[C@H]2[C@H](O)[C@@H](O)[C@@H](O[C@H]3[C@H](O)[C@@H](O)[C@@H](O[C@H]4[C@H](O)[C@@H](O)[C@@H](O[C@H]5[C@H](O)[C@@H](O)[C@@H](O[C@H]6[C@H](O)[C@@H](O)[C@@H](O[C@H]7[C@H](O)[C@@H](O)C(O)O[C@@H]7CO)O[C@@H]6CO)O[C@@H]5CO)O[C@@H]4CO)O[C@@H]3CO)O[C@@H]2CO)[C@H](O)[C@@H](O)[C@@H]1O (some centres unmarked) [maltoheptaose] | 57 |
| OC[C@H]1O[C@@H]2O[C@H]3[C@H](O)[C@@H](O)[C@@H](O[C@H]4[C@H](O)[C@@H](O)[C@@H](O[C@H]5[C@H](O)[C@@H](O)[C@@H](O[C@H]6[C@H](O)[C@@H](O)[C@@H](O[C@H]7[C@H](O)[C@@H](O)[C@@H](O[C@H]1[C@H](O)[C@H]2O)O[C@@H]7CO)O[C@@H]6CO)O[C@@H]5CO)O[C@@H]4CO)O[C@@H]3CO [α-cyclodextrine] | 58 |

Next up:
Q: Requested field: Relative Activity* (%). Item: OC[C@H]1O[C@H](O[C@H]2[C@H](O)[C@@H](O)C(O)O[C@@H]2CO)[C@H](O)[C@@H](O)[C@@H]1O (mixture of isomers) [maltose]
Result: 100

* * *

- Tested on: α-Glucosidase Derived from NBRC4239 Strain
- TEST_SUMMARY: Substrate specificity of the enzyme
- Assay type: biochemical, Aspergillus sojae
- RUN_PARAMETERS: 40°C, pH 6.0
PARAMETER: hydrolytic activity toward substrate (in words)

| MOLECULE | RESULT |
| --- | --- |
| OC[C@H]1O[C@@H]2O[C@H]3[C@H](O)[C@@H](O)[C@@H](O[C@H]4[C@H](O)[C@@H](O)[C@@H](O[C@H]5[C@H](O)[C@@H](O)[C@@H](O[C@H]6[C@H](O)[C@@H](O)[C@@H](O[C@H]7[C@H](O)[C@@H](O)[C@@H](O[C@H]8[C@H](O)[C@@H](O)[C@@H](O[C@H]9[C@H](O)[C@@H](O)[C@@H](O[C@H]1[C@H](O)[C@H]2O)O[C@@H]9CO)O[C@@H]8CO)O[C@@H]7CO)O[C@@H]6CO)O[C@@H]5CO)O[C@@H]4CO)O[C@@H]3CO | a little low |
| OC[C@H]1O[C@H](O[C@H]2[C@H](O)[C@@H](O)[C@@H](O[C@H]3[C@H](O)[C@@H](O)[C@@H](O[C@H]4[C@H](O)[C@@H](O)C(O)O[C@@H]4CO)O[C@@H]3CO)O[C@@H]2CO)[C@H](O)[C@@H](O)[C@@H]1O (some centres unmarked) | a little low |
